# measurementTarget: CaM (Bos taurus, UniProt P62157)
# Construct: made in house; host or cells: E. coli BL21 (DE3)
# assayProcedure: Pull-down assay with immobilized protein and LSM libraries
# Assay type: binding, bovine
# experimentalParameters: H14 library; 1:2 stoichiometry assumed; read-out: Surface mapping KD (apparent)
pKd: −log10 of the molar value.
pKd listing for selected molecules.

| structureSmiles | pKd |
| --- | --- |
| CC[C@H](C)[C@@H](CC(=O)N[C@H]1CCCC[C@@H]1C(N)=O)NC(=O)[C@H]1CCCC[C@@H]1NC(=O)[C@H]1CCCC[C@@H]1NC(=O)C[C@H](CC(N)=O)NC(=O)[C@H]1CCCC[C@@H]1N | 4.10 |
| CC(C)C[C@@H](CC(=O)N[C@H]1CCCC[C@@H]1C(=O)N[C@H]1CCCC[C@@H]1C(=O)N[C@@H](CCC(N)=O)CC(=O)N[C@H]1CCCC[C@@H]1C(N)=O)NC(=O)[C@H]1CCCC[C@@H]1N | 3.56 |
| C[C@@H](CC(=O)N[C@H]1CCCC[C@@H]1C(N)=O)NC(=O)[C@H]1CCCC[C@@H]1NC(=O)[C@H]1CCCC[C@@H]1NC(=O)C[C@H](CCC(N)=O)NC(=O)[C@H]1CCCC[C@@H]1N | 3.76 |
| CC(C)C[C@@H](CC(=O)N[C@H]1CCCC[C@@H]1C(N)=O)NC(=O)[C@H]1CCCC[C@@H]1NC(=O)[C@H]1CCCC[C@@H]1NC(=O)C[C@H](CC(C)C)NC(=O)[C@H]1CCCC[C@@H]1N | 4.80 |
| N=C(N)NCCC[C@@H](CC(=O)N[C@H]1CCCC[C@@H]1C(N)=O)NC(=O)[C@H]1CCCC[C@@H]1NC(=O)[C@H]1CCCC[C@@H]1NC(=O)C[C@H](CCC(N)=O)NC(=O)[C@H]1CCCC[C@@H]1N | 4.37 |

###

# measurementTarget: Gal-1 (Homo sapiens, UniProt P09382)
# Construct: made in house; host or cells: E. coli BL21(DE3)
# Sequence (P09382 whole entry): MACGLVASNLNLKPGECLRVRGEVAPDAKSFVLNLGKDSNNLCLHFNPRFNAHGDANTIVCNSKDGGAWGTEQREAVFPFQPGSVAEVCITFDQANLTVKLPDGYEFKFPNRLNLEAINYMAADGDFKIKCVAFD
# assayProcedure: Pull-down assay with immobilized protein and LSM libraries
# Assay type: binding
# experimentalParameters: H12 library; 1:1 binding assumed; read-out: Surface mapping KD (apparent)

| compound | Kd / µM |
| --- | --- |
| CC[C@H](C)[C@@H](CC(=O)N[C@H]1CCC[C@@H]1C(=O)N[C@H]1CCC[C@@H]1C(=O)N[C@@H](CO)CC(=O)N[C@H]1CCC[C@@H]1C(=O)N[C@H]1CCC[C@@H]1C(N)=O)NC(=O)[C@H]1CCC[C@@H]1NC(=O)[C@H]1CCC[C@@H]1N [H12 IS] | 485 |
| N=C(N)NCCC[C@@H](CC(=O)N[C@H]1CCC[C@@H]1C(=O)N[C@H]1CCC[C@@H]1C(=O)N[C@H](CC(=O)N[C@H]1CCC[C@@H]1C(=O)N[C@H]1CCC[C@@H]1C(N)=O)Cc1ccc(O)cc1)NC(=O)[C@H]1CCC[C@@H]1NC(=O)[C@H]1CCC[C@@H]1N [H12 RY] | 198 |

###

# measurementTarget: S100B (Homo sapiens)
# Construct: made in house; host or cells: Escherichia coli BL21(DE3)
# Sequence (P04271 whole entry): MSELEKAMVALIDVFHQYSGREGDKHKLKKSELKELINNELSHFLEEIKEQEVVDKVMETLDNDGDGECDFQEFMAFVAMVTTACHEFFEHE
# assayProcedure: Pull-down assay with immobilized protein and LSM libraries
# Format: binding
# experimentalParameters: H12 library; 1:1 binding assumed; read-out: Surface mapping KD (apparent)
pKd: −log10 of the molar value.
readoutType: pKd

| compound | measurementTarget | readoutType | measValue |
| --- | --- | --- | --- |
| C[C@@H](O)[C@@H](CC(=O)N[C@H]1CCC[C@@H]1C(=O)N[C@H]1CCC[C@@H]1C(N)=O)NC(=O)[C@H]1CCC[C@@H]1NC(=O)[C@H]1CCC[C@@H]1NC(=O)C[C@H](CCCCN)NC(=O)[C@H]1CCC[C@@H]1NC(=O)[C@H]1CCC[C@@H]1N [H12 KT] | S100B (Homo sapiens) | pKd | 3.65 |
| CC(C)C[C@@H](CC(=O)N[C@H]1CCC[C@@H]1C(=O)N[C@H]1CCC[C@@H]1C(N)=O)NC(=O)[C@H]1CCC[C@@H]1NC(=O)[C@H]1CCC[C@@H]1NC(=O)C[C@H](CCCNC(=N)N)NC(=O)[C@H]1CCC[C@@H]1NC(=O)[C@H]1CCC[C@@H]1N [H12 RL] | S100B (Homo sapiens) | pKd | 4.25 |
| C[C@@H](CC(=O)N[C@H]1CCC[C@@H]1C(=O)N[C@H]1CCC[C@@H]1C(=O)N[C@H](CC(=O)N[C@H]1CCC[C@@H]1C(=O)N[C@H]1CCC[C@@H]1C(N)=O)Cc1c[nH]c2ccccc12)NC(=O)[C@H]1CCC[C@@H]1NC(=O)[C@H]1CCC[C@@H]1N [H12 AW] | S100B (Homo sapiens) | pKd | 4.21 |
| N=C(N)NCCC[C@@H](CC(=O)N[C@H]1CCC[C@@H]1C(=O)N[C@H]1CCC[C@@H]1C(N)=O)NC(=O)[C@H]1CCC[C@@H]1NC(=O)[C@H]1CCC[C@@H]1NC(=O)C[C@H](Cc1ccc(O)cc1)NC(=O)[C@H]1CCC[C@@H]1NC(=O)[C@H]1CCC[C@@H]1N [H12 YR] | S100B (Homo sapiens) | pKd | 4.19 |
